- assayedTarget: lipoxygenase (Rattus norvegicus)
- Construct: Single cell suspensions of RBL-1 cells are homogenized to obtain the microsomal fraction containing lipoxygenase and cyclooxygenase; endogenous in cells; host or cells: RBL-1 (rat basophilic leukemia) cells, homogenate / microsomal fraction
- Sequence (P12527 whole entry): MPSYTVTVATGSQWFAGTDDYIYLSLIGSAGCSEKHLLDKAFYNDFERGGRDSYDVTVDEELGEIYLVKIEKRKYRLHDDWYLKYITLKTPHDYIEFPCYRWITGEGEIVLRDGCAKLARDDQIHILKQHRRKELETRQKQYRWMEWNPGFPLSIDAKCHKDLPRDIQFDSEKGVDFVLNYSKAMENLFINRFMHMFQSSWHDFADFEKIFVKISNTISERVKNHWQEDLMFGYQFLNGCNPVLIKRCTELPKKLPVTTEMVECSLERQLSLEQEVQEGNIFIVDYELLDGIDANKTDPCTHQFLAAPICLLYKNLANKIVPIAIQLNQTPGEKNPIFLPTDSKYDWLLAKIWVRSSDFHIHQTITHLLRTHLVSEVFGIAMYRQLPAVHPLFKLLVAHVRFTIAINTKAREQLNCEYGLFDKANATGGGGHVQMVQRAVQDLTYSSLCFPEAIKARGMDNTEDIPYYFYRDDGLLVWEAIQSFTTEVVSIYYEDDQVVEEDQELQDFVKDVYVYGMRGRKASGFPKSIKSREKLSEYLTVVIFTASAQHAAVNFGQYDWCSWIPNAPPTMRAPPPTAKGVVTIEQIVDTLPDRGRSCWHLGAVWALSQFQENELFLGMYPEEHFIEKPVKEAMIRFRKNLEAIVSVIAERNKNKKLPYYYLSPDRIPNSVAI
- experimentSummary: inhibition of lipoxygenase derived from rat basophilic leukemia (RBL-1) cells (L1 5,12-di-HETE and L2 5-HETE formation)
- Type: biochemical
- conditions: RBL-1 enzyme, L2 5-HETE; read-out: IC50 L2 (lipoxygenase product 5-HETE)
quantityName: IC50 (nM)
# number only, unit nM dropped from output

Reference set, count: 5
INSERT INTO assay_data (molecule, unitlabel, readoutnumber) VALUES
  ('OCc1cc(Cl)ccc1Nc1ccc(O)cc1', 'nM', 40),
  ('OCc1ccccc1Nc1ccc(O)cc1 [Example 2c, 2-(4-Hydroxyphenylamino)benzenemethanol]', 'nM', 280),
  ('COc1ccc(Nc2ccc(O)cc2)c(CO)c1', 'nM', 90),
  ('COc1ccc(Nc2ccc(O)cc2)c(C(C)O)c1 (stereo not shown)', 'nM', 160),
  ('CC(O)c1ccccc1Nc1ccc(O)cc1 (stereo not shown)', 'nM', 180);

Provide IC50, tested on lipoxygenase (Rattus norvegicus), for COc1ccc(N=C2C=CC(=O)C=C2)c(CO)c1 .
150

Report measured IC50 on lipoxygenase (Rattus norvegicus); entry: OCc1ccc(Cl)cc1Nc1ccc(O)cc1
160

###

Overview of recorded ED50 for various compounds
- Test system: SRS-A component of immunologically induced broncho-construction
- experimentSummary: effect on the SRS-A component of immunologically induced bronchoconstriction in guinea pigs
- Format: in vivo
- conditions: Cavia porcellus, iv; guinea pig, i.v.; indomethacin + chlorpheniramine medicated, arachidonic acid, antigen challenge; read-out: In vivo Guinea Pig ED50 i.v.
Numeric only. Scale: mg/kg

Example compounds with recorded ED50:
INSERT INTO results (compound, unitlabel, readoutnumber) VALUES
  ('OCc1cc(Cl)ccc1Nc1ccc(O)cc1', 'mg/kg', 0.49),
  ('COc1ccc(N=C2C=CC(=O)C=C2)c(CO)c1', 'mg/kg', 0.12),
  ('COc1ccc(Nc2ccc(O)cc2)c(CO)c1', 'mg/kg', 0.13);

Return value of ED50 for input OCc1ccccc1Nc1ccc(O)cc1 [Example 2c, 2-(4-Hydroxyphenylamino)benzenemethanol] , no commentary.
0.84

###

- assayedTarget: lipoxygenase (Rattus norvegicus)
- Construct: Single cell suspensions of RBL-1 cells are homogenized to obtain the microsomal fraction containing lipoxygenase and cyclooxygenase; endogenous in cells; host or cells: RBL-1 (rat basophilic leukemia) cells, homogenate / microsomal fraction
- experimentSummary: inhibition of lipoxygenase derived from rat basophilic leukemia (RBL-1) cells (L1 5,12-di-HETE and L2 5-HETE formation)
- Format: biochemical
- conditions: RBL-1 enzyme, L1 5,12-di-HETE; read-out: IC50 L1 (lipoxygenase product 5,12-di-HETE)
List of pIC50 values.
In textbook form, pIC50 equals minus log to base ten of the concentration in mol/L.

INSERT INTO results (compound, quantityname, readoutnumber) VALUES
  ('CC(O)c1ccccc1Nc1ccc(O)cc1 (stereo not shown)', 'pIC50', 6.70),
  ('OCc1ccc(Cl)cc1Nc1ccc(O)cc1', 'pIC50', 6.64),
  ('COc1ccc(N=C2C=CC(=O)C=C2)c(CO)c1', 'pIC50', 6.72),
  ('OCc1ccccc1Nc1ccc(O)cc1 [Example 2c, 2-(4-Hydroxyphenylamino)benzenemethanol]', 'pIC50', 6.42),
  ('COc1ccc(Nc2ccc(O)cc2)c(C(C)O)c1 (stereo not shown)', 'pIC50', 6.70);

Name the value of pIC50 reported for OCc1cc(Cl)ccc1Nc1ccc(O)cc1 when tested on lipoxygenase (Rattus norvegicus).
7.22

Under lipoxygenase (Rattus norvegicus): report pIC50 of COc1ccc(Nc2ccc(O)cc2)c(CO)c1 .
6.70
